Data provenance: paper PMC3662788

# ASSAYED_TARGET: T188S mutant 3α-HSD/CR (Comamonas testosteroni, UniProt P80702, T188S)
# Construct: His-tag (inferred from pET15b vector and Ni-NTA purification) (N)
# Sequence (P80702 whole entry T188S): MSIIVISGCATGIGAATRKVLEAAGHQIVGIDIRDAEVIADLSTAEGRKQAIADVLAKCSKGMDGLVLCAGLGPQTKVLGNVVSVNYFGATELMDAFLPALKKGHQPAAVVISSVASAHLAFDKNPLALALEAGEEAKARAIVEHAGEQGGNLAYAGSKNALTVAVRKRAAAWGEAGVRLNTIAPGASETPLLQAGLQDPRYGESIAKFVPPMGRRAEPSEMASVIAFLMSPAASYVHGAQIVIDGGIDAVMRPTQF
# TEST_NAME: biochemical
RECORDED_ENDPOINT: Ki (µM)
Provide the reading as a plain figure in µM.

Req: What Ki value was documented for this molecule, NC(=O)c1ccc[n+]([C@@H]2O[C@H](COP(=O)([O-])OP(=O)(O)OC[C@H]3O[C@@H](n4cnc5c(N)ncnc54)[C@H](O)[C@@H]3O)[C@@H](O)[C@H]2O)c1 ?
Resp: 1600

---

# ASSAYED_TARGET: T188A mutant 3α-HSD/CR (Comamonas testosteroni, UniProt P80702, T188A)
# Construct: His-tag (inferred from pET15b vector and Ni-NTA purification) (N)
# Sequence (P80702 whole entry T188A): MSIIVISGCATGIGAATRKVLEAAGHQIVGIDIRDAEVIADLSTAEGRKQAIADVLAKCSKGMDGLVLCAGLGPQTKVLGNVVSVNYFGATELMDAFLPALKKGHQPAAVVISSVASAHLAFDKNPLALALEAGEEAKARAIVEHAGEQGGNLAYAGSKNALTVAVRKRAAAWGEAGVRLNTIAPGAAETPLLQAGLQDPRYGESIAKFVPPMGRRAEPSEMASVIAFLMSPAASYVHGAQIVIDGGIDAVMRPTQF
# TEST_NAME: biochemical
RECORDED_ENDPOINT: Ki (µM)
The reply should be a number in µM, with the unit left off.

Req: Notebook entry, T188A mutant 3α-HSD/CR (Comamonas testosteroni, UniProt P80702, T188A) assay: Ki of NC(=O)c1ccc[n+]([C@@H]2O[C@H](COP(=O)([O-])OP(=O)(O)OC[C@H]3O[C@@H](n4cnc5c(N)ncnc54)[C@H](O)[C@@H]3O)[C@@H](O)[C@H]2O)c1 [NAD^+] = ?
Resp: 1400
